Answer each item with its documented IC50.
biological target: receptor, calf striatum ([^3 H]-spiroperidol) (Bos taurus, UniProt P20288); construct: calf striatum was used as the receptor; from tissue; host or cells: calf striatum; test: Spiroperidol-Binding Test (in vitro)
Sequence (P20288 whole entry): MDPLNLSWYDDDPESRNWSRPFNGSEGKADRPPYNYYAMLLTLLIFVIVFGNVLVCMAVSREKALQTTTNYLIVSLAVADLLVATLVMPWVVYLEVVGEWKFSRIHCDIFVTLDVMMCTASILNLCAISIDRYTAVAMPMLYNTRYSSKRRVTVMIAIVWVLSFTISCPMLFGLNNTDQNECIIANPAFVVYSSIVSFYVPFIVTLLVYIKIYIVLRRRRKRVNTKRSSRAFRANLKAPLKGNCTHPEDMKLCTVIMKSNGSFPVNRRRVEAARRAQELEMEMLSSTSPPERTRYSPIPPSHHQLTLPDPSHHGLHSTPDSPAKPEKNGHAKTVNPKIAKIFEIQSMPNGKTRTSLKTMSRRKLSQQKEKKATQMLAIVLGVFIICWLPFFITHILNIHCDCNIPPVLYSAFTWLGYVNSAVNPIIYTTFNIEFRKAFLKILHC
Remember to follow the number with its unit.

Exercise: Given O=c1[nH]c2cc(I)ccc2n1[C@@H]1CCN2C[C@@H](c3ccccc3F)CC[C@@H]2C1 (relative stereo) , state its recorded IC50.
Key: 8.6 nM

Exercise: Queued: O=c1[nH]c2cc(Br)ccc2n1[C@@H]1CCN2C[C@@H](c3ccccc3F)CC[C@@H]2C1 (relative stereo)
Key: 3.8 nM

Exercise: Queued: N#Cc1ccc2c(c1)[nH]c(=O)n2[C@@H]1CCN2C[C@@H](c3ccccc3F)CC[C@@H]2C1 (relative stereo)
Key: 50 nM
